- Tested on: Pseudomonas aeruginosa Hamburgensis
- ASSAY_EXPLANATION: serial dilution test in microtiter system (bacteriostasis, MIC)
- Format: cell-based
- MEASUREMENT_PARAMETERS: liquid medium, 18 to 20 h at 37°C, read-out: MHK-Werte Pseud. aerug. Hbg.
METRIC: MIC (µg/mL)

Below, 3 compounds whose answers are already recorded.
[
  {
    "COMPOUND": "CC1(C)SC2C(NC(=O)C(NC(=O)Nc3cnc(Nc4ccc(S(N)(=O)=O)c(O)c4)nc3O)c3ccccc3)C(=O)N2C1C(=O)O (stereo not shown) [Verbindung 45]",
    "RESULT_UNITS": "µg/mL",
    "RECORDED_VALUE": 1
  },
  {
    "COMPOUND": "CC1(C)S[C@@H]2[C@H](NC(=O)[C@H](NC(=O)Nc3cnc(Nc4ccc(S(N)(=O)=O)cc4)nc3O)c3cccs3)C(=O)N2[C@H]1C(=O)O [Verbindung 2]",
    "RESULT_UNITS": "µg/mL",
    "RECORDED_VALUE": 4
  },
  {
    "COMPOUND": "CC1(C)SC2C(NC(=O)C(NC(=O)Nc3cnc(Nc4ccc(S(N)(=O)=O)c(O)c4)nc3O)c3ccc(O)cc3)C(=O)N2C1C(=O)O (stereo not shown) [Verbindung 44]",
    "RESULT_UNITS": "µg/mL",
    "RECORDED_VALUE": 0.5
  }
]

P. CC1(C)SC2C(NC(=O)C(NC(=O)Nc3cnc(Nc4ccc(S(C)(=O)=O)cc4)nc3O)c3ccc(O)c(Cl)c3)C(=O)N2C1C(=O)O (stereo not shown) [Verbindung 25]
Q. CC1(C)SC2C(NC(=O)C(NC(=O)Nc3cnc(Nc4ccc(NC(N)=O)cc4)nc3O)c3ccc(O)cc3)C(=O)N2C1C(=O)O (stereo not shown) [Verbindung 43]
Ask | Could you determine which record has the numerically smaller MIC? Candidates: P and Q Answer format: the label of the selected item.
Reply | Q
(Q: 1 µg/mL, P: 2 µg/mL)

a. CCCCS(=O)(=O)c1ccc(Nc2ncc(NC(=O)NC(C(=O)NC3C(=O)N4C3SC(C)(C)C4C(=O)O)c3ccc(O)cc3)c(O)n2)cc1 (stereo not shown) [Verbindung 32]
b. CC1(C)S[C@@H]2[C@H](NC(=O)C(NC(=O)Nc3cnc(Nc4ccc(C(N)=O)c(C(N)=O)c4)nc3O)c3ccc(O)cc3)C(=O)N2[C@H]1C(=O)O (stereo partly shown) [Verbindung 55]
Ask | Which value of MIC is numerically greater: that of a or that of b ? Answer format: the label of the selected item.
Reply | a
